- Assay summary: Solubility in normal saline
- Type: physicochemical
- Run conditions: saline or isotonic
I would appreciate it if you labelled entries TRUE when solubility is 8 mg/mL or higher, otherwise FALSE.

// inclusive: solubility at least 8 mg/mL? input: CCOC(=O)CC[C@@H]1N=C(c2ccccn2)c2cc(Br)ccc2-n2c(C)cnc21.O=S(=O)(O)c1ccccc1 [C3]
TRUE

Check this compound for solubility at or above 8 mg/mL: CCOC(=O)CC[C@@H]1N=C(c2ccccn2)c2cc(Br)ccc2-n2c(C)cnc21.CS(=O)(=O)O [C4]
TRUE

State whether the measured solubility reaches 8 mg/mL, counting equality as reaching it, for CCOC(=O)CC[C@@H]1N=C(c2ccccn2)c2cc(Br)ccc2-n2c(C)cnc21 [C2]
TRUE

Decide: is the reported value of solubility for Cc1ccc(S(=O)(=O)O)cc1.Cc1cnc2n1-c1ccc(Br)cc1C(c1ccccn1)=N[C@H]2CCC(=O)OCCC(C)C [C8] equal to or greater than 8 mg/mL?
FALSE

Determine whether this compound has solubility no lower than 8 mg/mL: CCOC(=O)CC[C@@H]1N=C(c2ccccn2)c2cc(Br)ccc2-n2c(C)cnc21.CCS(=O)(=O)O [C5]
TRUE

Is solubility at least 8 mg/mL? Consider Cc1ccc(S(=O)(=O)O)cc1.Cc1cnc2n1-c1ccc(Br)cc1C(c1ccccn1)=N[C@H]2CCC(=O)OC1CCCCC1 [C9]
FALSE
